Target: T1, LexA WT (Mycobacterium tuberculosis, UniProt P9WHR7 1-236)
T1 sequence: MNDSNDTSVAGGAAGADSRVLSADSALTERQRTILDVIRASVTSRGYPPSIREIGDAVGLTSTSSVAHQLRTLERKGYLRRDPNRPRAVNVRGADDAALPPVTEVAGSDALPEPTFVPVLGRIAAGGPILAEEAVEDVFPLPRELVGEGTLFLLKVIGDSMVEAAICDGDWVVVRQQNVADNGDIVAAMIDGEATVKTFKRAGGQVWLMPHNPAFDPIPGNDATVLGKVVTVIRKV
Assay: BLI; pH 7.5; BLI: 10 mM HEPES pH 7.5, 50 mM NaCl, 25 C (pH 4 buffer not stated), 1:1 global fit; […]
Conditions: protein: recombinant; tags: N-term 6xHis (pET28a); chain copies: 2; label: 5' biotin on strand 1; blunt
endpoint.label: pKd
Answers are plain numbers, as −log10 of the molar value.

binder	reading
lexA_44mer SOS box, biotinylated (dsDNA) DNA 1: CCGGAACACGCCTGTCGAACACATGTTTGATTCTTGGTGCGAAT DNA 2: ATTCGCACCAAGAATCAAACATGTGTTCGACAGGCGTGTTCCGG	9.01
dnaE2_44mer SOS box, biotinylated (dsDNA) DNA 1: ACAACTGCGCTGTATCGAACAATTGTTCGATATACTGTGGAATG DNA 2: CATTCCACAGTATATCGAACAATTGTTCGATACAGCGCAGTTGT	8.67
recA_44mer SOS box, biotinylated (dsDNA) DNA 1: GTGTCACACTTGAATCGAACAGGTGTTCGGCTACTGTGGTGATC DNA 2: GATCACCACAGTAGCCGAACACCTGTTCGATTCAAGTGTGACAC	8.44

Now examine the next entry.
Any idea what pKd was measured for rv3074_44mer SOS box, biotinylated (dsDNA) DNA 1: GCAGGCTGCTATTCTCGAACACATGTTCGAGACATTGACCGCGA DNA 2: TCGCGGTCAATGTCTCGAACATGTGTTCGAGAATAGCAGCCTGC ?
8.41
